- tested_target: G protein-coupled receptor kinase 6 (Homo sapiens);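 also: mean percent inhibition of GRK6, GSK PKIS screen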
- protocol_conditions: at 0.1 µM
measured_attribute: inhibition (%)
Express it in %; write the number only.

Noted for Cc1ccc2c(-c3ccnc(Nc4cccc(C(F)(F)F)c4)n3)c(-c3ccccc3)nn2n1 : its inhibition reads 2.15

Noted for CN(c1ccc(NC(=O)Nc2ccc(OC(F)(F)F)cc2)cc1)c1ccnc(Nc2cccc(S(N)(=O)=O)c2)n1 : its inhibition reads -5.14

Noted for c1ccc(Cc2nc3ccc(Nc4ncnc5ccccc45)cc3[nH]2)cc1 : its inhibition reads 3.39

Noted for Cc1cc(-c2ccccn2)cc(C)c1/C=C/c1cncc(-c2nn[nH]n2)c1 : its inhibition reads 5.67

Others:
Noted for COC(=O)c1ccc2c(c1)C(=Cc1cc(Br)c(O)c(Br)c1)C(=O)N2 : its inhibition reads 7.82

Noted for CCS(=O)(=O)c1ccc(OC)c(Nc2nccc(N(C)c3ccc4c(C)n[nH]c4c3)n2)c1 : its inhibition reads -0.58

Noted for CS(=O)(=O)CCNCc1nc(-c2ccc3ncnc(Nc4ccc(OCc5cccc(C(F)(F)F)c5)cc4)c3c2)cs1 : its inhibition reads 0.43

Noted for COc1ccc(-c2nn3ncccc3c2-c2ccnc(Nc3cccc(C(F)(F)F)c3)n2)cc1 : its inhibition reads 3.32

Noted for NS(=O)(=O)c1cccc(-c2cc3ccncc3cc2OCc2ccccc2)c1 : its inhibition reads 0.24
